- measurement-notes: NCI Yeast Anticancer Drug Screen. Data for the bub3 strain (AID 167)
- condition-details: S. cerevisiae bub3 mutant strain, active compounds read high; at 50.0 µM unless noted
Compounds without any hit were thinned out: in the full panel of roughly 79,000, 15% have a hit.
property-measured: growth inhibition (%)
Dear colleague, please return just the value in %, with no unit written.

Record `ClCc1ccccc1C(c1ccccc1)c1ccccc1` . Reported growth inhibition: 24.9

// growth inhibition lookup, compound = `Cc1cc(C)c2c(c1)sc1n[nH]c(=S)n12` , result: -10.8

Reported growth inhibition of `O=C(Nc1ccccc1)Nc1ccc([N+](=O)[O-])cc1[N+](=O)[O-]` : 11.9

So, `NNC(=O)Cc1cccnc1` ? Its growth inhibition was -33

Please fill in: growth inhibition reported for `CN1CCN(C(=S)N(C)C(=O)c2ccco2)CC1` = -44.4

compound `C1CSCCSCCS1` , growth inhibition observed: 28

Input `O=C(NCCOC(=O)OCCNC(=O)NC1CCCCC1)NC1CCCCC1` . Output growth inhibition: 4.1

Entry under test: Cc1ccc(/C=C/C(=O)C(C)CN(C)C)cc1C (configuration not stated) . Its growth inhibition was 0.3

Lab note: `Cc1n[nH]c(=O)n1/N=C/c1ccncc1` gave growth inhibition of -4.35
